The reported numbers originate from patent US20200354457A1.

Readings of % Inhibition for the listed binders
TESTED TARGET: T1, soluble human Lag3-IgG1-Fc with biotinylated C-terminal Avi-tag (human, biotin on the C-terminal Avi-tag)
T1 construct: also called LAG3-Fc-avi; biotinylated LAG3-Fc antigen
ASSAY NAME: A375 MHCII competition ELISA at 3 µg/ml, biotinylated Lag3 250 ng/ml; competitor MHCII on A375 cells
Your answer is read as %, so omit the unit and give the number.

{"columns": ["BINDER", "ASSAY METRIC", "VALUE REPORTED"],
 "data": [
  ["bivalent P9G1 aVH-Fc (Fc fusion) EVQLVESGGGLVQPGGSLRLSCAASGFNIKDTCIGWVRRAPGKGTELVAEICQDIGYTRYADSVKGRFTISADTSKNTAYLQMNSLRAEDTAVYYCAGEEGATNFKYWGQGTTVTVSSGGGGSGGGGSDKTHTCPPCPAPEAAGGPSVFLFPPKPKDTLMISRTPEVTCVVVDVSHEDPEVKFNWYVDGVEVHNAKTKPREEQYNSTYRVVSVLTVLHQDWLNGKEYKCKVSNKALGAPIEKTISKAKGQPREPQVYTLPPSRDELTKNQVSLTCLVKGFYPSDIAVEWESNGQPENNYKTTPPVLDSDGSFFLYSKLTVDKSRWQQGNVFSCSVMHEALHNHYTQKSLSLSPGK", "% Inhibition", 96.3],
  ["control antibody MDX25F7 (antibody, V domains shown) VH: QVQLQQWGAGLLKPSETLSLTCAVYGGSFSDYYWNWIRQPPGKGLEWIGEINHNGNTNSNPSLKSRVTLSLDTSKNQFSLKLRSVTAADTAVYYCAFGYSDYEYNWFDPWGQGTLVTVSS VL: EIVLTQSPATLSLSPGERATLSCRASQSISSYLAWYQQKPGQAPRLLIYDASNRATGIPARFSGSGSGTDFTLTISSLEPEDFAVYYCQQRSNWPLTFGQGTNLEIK", "% Inhibition", 90.4],
  ["bivalent P11E9 aVH-Fc (Fc fusion) EVQLVESGGGLVQPGGSLRLSCAASGFNIKDTCIGWVRRAPGKGTELVAEICHDIGYTRYADSVKGRFTISADTSKNTAYLQMNSLRAEDTAVYYCAAEEHVASFEYWGQGTTVTVSSGGGGSGGGGSDKTHTCPPCPAPEAAGGPSVFLFPPKPKDTLMISRTPEVTCVVVDVSHEDPEVKFNWYVDGVEVHNAKTKPREEQYNSTYRVVSVLTVLHQDWLNGKEYKCKVSNKALGAPIEKTISKAKGQPREPQVYTLPPSRDELTKNQVSLTCLVKGFYPSDIAVEWESNGQPENNYKTTPPVLDSDGSFFLYSKLTVDKSRWQQGNVFSCSVMHEALHNHYTQKSLSLSPGK", "% Inhibition", 97.2]
]}

Continue with the binder presented below.
Request: Identify the reported % Inhibition for the following entry. bivalent P21A03 aVH-Fc (Fc fusion) EVQLVESGGGLVQPGGSLRLSCAASGFNIKDTCIGWVRRAPGKGTELVAEICEDIGYTRYADSVKGRFTISADTSKNTAYLQMNSLRAEDTAVYYCAANEHSVGFNYWGQGTTVTVSSGGGGSGGGGSDKTHTCPPCPAPEAAGGPSVFLFPPKPKDTLMISRTPEVTCVVVDVSHEDPEVKFNWYVDGVEVHNAKTKPREEQYNSTYRVVSVLTVLHQDWLNGKEYKCKVSNKALGAPIEKTISKAKGQPREPQVYTLPPSRDELTKNQVSLTCLVKGFYPSDIAVEWESNGQPENNYKTTPPVLDSDGSFFLYSKLTVDKSRWQQGNVFSCSVMHEALHNHYTQKSLSLSPGK
Result: 97.4
